ASSAYED_TARGET: PTP1B (Homo sapiens, UniProt P18031)
Sequence (P18031 whole entry): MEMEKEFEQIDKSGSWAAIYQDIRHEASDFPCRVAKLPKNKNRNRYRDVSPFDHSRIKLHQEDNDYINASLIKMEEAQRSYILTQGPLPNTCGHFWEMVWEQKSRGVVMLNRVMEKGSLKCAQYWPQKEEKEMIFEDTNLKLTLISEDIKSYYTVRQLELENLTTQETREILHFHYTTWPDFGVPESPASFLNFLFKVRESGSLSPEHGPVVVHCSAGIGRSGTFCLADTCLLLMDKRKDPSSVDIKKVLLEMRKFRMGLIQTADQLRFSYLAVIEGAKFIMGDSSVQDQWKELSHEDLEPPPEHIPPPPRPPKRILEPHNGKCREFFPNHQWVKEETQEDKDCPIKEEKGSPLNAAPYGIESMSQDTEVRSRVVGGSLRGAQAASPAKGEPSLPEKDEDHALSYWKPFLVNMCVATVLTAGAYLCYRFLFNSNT
PROCEDURE_DETAILS: PTP1B inhibition assay (hydrolysis of p-nitrophenyl phosphate, 96-well plate)
PROPERTY_LABEL: IC50

Known IC50 results, listed for orientation:
molecule="CC1CCC2(CC3OC(=O)CC3O2)O1 (stereo not shown)" property_label=IC50 recorded_measurement="> 1000 µM"
molecule=C[C@@H]1CCC(=O)C[C@H](O)[C@@H](O)CC(=O)O1 property_label=IC50 recorded_measurement="> 1000 µM"
molecule=C[C@@H]1CC[C@]2(C[C@@H]3OC(=O)C[C@@H]3O2)O1 property_label=IC50 recorded_measurement="> 1000 µM"

// switching to the query molecule
Input: // fetch IC50 given entry CCC(C)CC(C)C=C(C)C=CC=CC=C(C)C(O)=C1C(=O)NC(Cc2ccc(O)cc2)C1=O (stereo not shown)
Output: 3.24 µM
